- system-under-test: T1, bacterially produced human IL-6 (human, UniProt P05231 30-212)
- T1 construct: also called bactIL-6; prokaryotic IL-6
- test-protocol: SPR; purified Fab
readout-label: Kd (nM)
Answers are plain numbers, in nM.

IN: Dear colleague, I am looking for the recorded Kd of the following binder: Fab 41B5/35C1 (Fab, V domains shown, VL-shuffled Fab of 17F10) VH: EVQLQESGPGLVKPSQTLSLTCTVSGGSIATSYYAWSWIRQPPGKGLEWMGVIDYDGDTYYKPSLKSRTSISRDTSKNQFSLQLSSVTPEDTAVYYCARAGLGDSYYLGTYYAMDYWGKGTLVTVSS VL: QSALTQPPSMSGTLGKTLTISCNGTSSDIGSGDYVSWYQQLPGTTPKLLIEGVTTRASGIPDRFSASKSDNTASLTISGLQSEDEATYYCASYRETNNVVFGGGTHLTVLS
OUT: 0.47

Please examine the following record next.
IN: What measured Kd goes with Fab 20A4 (Fab, V domains shown, Fab) VH: EVQLQESGPGLVKPSQTLSLTCTVSGGSITTRYYAWSWIRQPPGKGLEWMGVIDYDGDTYYSPSLKSRTSISWDTSKNQFSLQLSSVTPEDTAVYYCARDPDVVTGFHYDYWGQGTQVTVSS VL: LNFMLTQPPSVSGTLGKTVTISCAGTSSDIGGYNYVSWYQQLPGTAPKLLIHRVSTRASGIPDRFSGSKSGNTASLTISGLRSEDEANYYCASYRNFNNAVFGGGTQLTVLG ?
OUT: 2

Attribution: patent US20220073604A1
